Exercise: state measured GI50 for each of the compounds provided.
System: MCF7 breast
Test method notes: NCI tumour cell line growth inhibition, 48 h

Notebook: Cc1cc(I)cc(CN(C)CCN2CCCC2)c1O , GI50 read as 24.3 µM

C=C1C(=O)[C@@]23CC1C(O)[C@@H](OC(C)=O)[C@@H]2C1(C)C(OC(C)=O)C[C@@H](OC(C)=O)C(C)(C)[C@@H]1C[C@H]3OC(C)=O (stereo partly drawn) yielded GI50 of 6.33 µg/mL

Measured GI50, O=C(Nc1ccc(F)cc1F)c1cc(Br)ccc1O : 2.56 µM

---

System: DU-145 prostate
Test method notes: NCI tumour cell line growth inhibition, 48 h; in the data active means GI50 below about 0.43 µM; inactive means the rest
Entry note: the call must match one of 1 (yes) for active, 0 (no) for inactive

Which outcome was entered for the compound COc1ccc2c(CN3CCC[C@H]3C(=O)O)cc3cc4c(cc3c2c1)OCO4 in this test?
0 (no)

What did the test return for COc1ccc(-c2ccc(/C=N/n3c(COc4ccc(Cl)cc4Cl)nn(CN4CCN(C)CC4)c3=S)o2)c([N+](=O)[O-])c1 ?
0 (no)

Per the records of this test, what outcome belongs to O=C(N/N=C/c1ccccc1Cl)c1ccccc1Nc1ccnc(C(F)(F)F)c1 ?
0 (no)

Fill in: this test's call for COc1c(Cl)c2c(c(OC)c1OC)-c1ccc(SC)c(=O)cc1[C@@H](NC(=O)OCC(F)(F)F)CC2 is ___
1 (yes)

Name the outcome recorded for COc1cc2cc(C(=O)Nc3cc(N)c4ccccc4c3CCCl)[nH]c2c(OC)c1OC in the assay.
1 (yes)

Hi team, can someone confirm the assay call for CC[Si](CC)(CC)OC[C@]1([C@@H]2COC(C)(C)O2)CC=CC(=O)O1 ?
0 (no)

Which result was noted for this compound in the test: CCCN1CCN(c2ccc3nc(-c4ccc5nc(-c6cc(OC)ccc6OC)[nH]c5c4)[nH]c3c2)CC1
0 (no)

Recorded test outcome, item COc1ccc(CNc2c3ccccc3nc3ccc(OC)cc23)cc1
0 (no)

Given O=CN1N=C(c2ccc(Cl)cc2)CC1c1cccc(Nc2ccnc3cc(Cl)ccc23)c1 (centres undefined) , state the outcome it received in this test.
0 (no)
